Test system: Fibroblast
Experiment: Multiplex assay against human fibroblast
Assay type: toxicity, cell-based
Conditions: 12 h, 10 µM, compound concentration 10 uM, replicate 1
Lab note: compare Population Tubulin-Different-Phenotype (%) with 30%, writing rule met if less and rule not met if equal or more.

// below: answered compounds
N#Cc1cccc(C(=O)Nc2cc(-c3ccccc3)nn2-c2ccccc2)c1 = rule not met
CC(C)[C@H](CO)Nc1nc(Nc2cccc(Cl)c2)c2ncn(C(C)C)c2n1 = rule not met
Oc1cccc(-c2nc(N3CCOCC3)c3oc4ncccc4c3n2)c1 = rule not met
CN1C(=O)[C@@H](NC(=O)c2cc3ccccc3[nH]2)N=C(c2ccccc2)c2ccccc21 [DEVAZEPIDE] = rule not met
Cc1ccc(NC(=O)Nc2cc(C(F)(F)F)ccc2F)cc1Nc1ccc2c(c1)NC(=O)/C2=C\c1ccc[nH]1 = rule met
CC[C@@H]1C(=O)N(C)c2cnc(Nc3ccc(C(=O)NC4CCN(C)CC4)cc3OC)nc2N1C1CCCC1 = rule not met

Challenge: Population Tubulin-Different-Phenotype (%) under 30%? Item: `CN(c1cc(C(F)(F)F)nc(OCCC(=O)O)n1)c1cccc2c1CCC2`
Response given: rule met

Challenge: Regarding CCCCCNC(=N)N/N=C/c1c[nH]c2ccc(OC)cc12.O=C(O)/C=C\C(=O)O [TEGASEROD MALEATE] , kindly confirm whether its Population Tubulin-Different-Phenotype (%) is beneath 30%.
Response given: rule not met

====

Tested on: Fibroblast
Experiment: Multiplex assay against human fibroblast
Format: toxicity, cell-based
Conditions: 48 h, 10 µM, compound concentration 10 uM, replicate 1
PROPERTY MEASURED: Population Tubulin-Different-Phenotype (%)
Kindly provide the numeric value in % only, without the unit symbol.

See these solved cases before continuing.
CC(C)c1cc(Nc2nc(N3CCC[C@H](N)C3)ncc2C(N)=O)cc(C(C)C)n1 = 66
Oc1cccc(-c2nc(N3CCOCC3)c3oc4ncccc4c3n2)c1 = 68
Cc1ccc(S(=O)(=O)NC2c3ccccc3Oc3ccccc32)cc1 = 26

Form: item CN1C(=O)[C@@H](NC(=O)c2cc3ccccc3[nH]2)N=C(c2ccccc2)c2ccccc21 [DEVAZEPIDE] ; test system Fibroblast; Population Tubulin-Different-Phenotype (%): 57

// Population Tubulin-Different-Phenotype (%) (Fibroblast) for `N#CCNC(=O)c1ccc(-c2ccnc(Nc3ccc(N4CCOCC4)cc3)n2)cc1` = 37

Record `CN(c1cc(C(F)(F)F)nc(OCCC(=O)O)n1)c1cccc2c1CCC2` / Fibroblast, Population Tubulin-Different-Phenotype (%) recorded as 19

Result for `C[C@@H](Oc1cc(-n2cnc3ccc(CN4CCN(C)CC4)cc32)sc1C(N)=O)c1ccccc1C(F)(F)F` , tested on Fibroblast, Population Tubulin-Different-Phenotype (%): 68

So the reported Population Tubulin-Different-Phenotype (%) for `Cc1c(Nc2ccc(S(=O)(=O)N3CCN(C)CC3)cc2F)nc2ccc(-c3cnn(C4CC4)c3)cn2c1=O` , on Fibroblast, turned out to be 31

Measured Population Tubulin-Different-Phenotype (%) for this entry `Cl.NC[C@@H]1O[C@H](C23CC4CC(CC(C4)C2)C3)Cc2c1ccc(O)c2O` on Fibroblast: 46

====

System: HEK-293T
Test: Multiplex assay against HEK293T
Assay type: toxicity, cell-based
Conditions: human, 24 h, 1 µM, compound concentration 1 uM, replicate 1
Each record here notes measured Total Cell Count.
Just the number.

Solved cases (7 shown):
CC(Cc1ccc(O)c(O)c1)C(C)Cc1ccc(O)c(O)c1 (stereo not drawn) [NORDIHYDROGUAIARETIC ACID] = 156
CC(C)C[C@H](NC(=O)[C@H](Cc1ccccc1)NC(=O)CNC(=O)CNC(=O)[C@@H](N)Cc1ccc(O)cc1)C(=O)O = 175
CC(C)[C@H](CO)Nc1nc(Nc2cccc(Cl)c2)c2ncn(C(C)C)c2n1 = 295
CCCc1cc(C)[nH]c(=O)c1CNC(=O)c1cc(-c2ccc(N3CCN(C(C)C)CC3)nc2)cc2c1cnn2C(C)C = 190
Cc1ccc(S(=O)(=O)NC2c3ccccc3Oc3ccccc32)cc1 = 392
CCOC(=O)CCNc1cc(N2CCc3ccccc3CC2)nc(-c2ccccn2)n1 = 821
C[C@@H](Oc1cc(-n2cnc3ccc(CN4CCN(C)CC4)cc32)sc1C(N)=O)c1ccccc1C(F)(F)F = 321

Please examine the following record next.
Lookup result for CN1C(=O)[C@@H](NC(=O)c2cc3ccccc3[nH]2)N=C(c2ccccc2)c2ccccc21 [DEVAZEPIDE] ; measured Total Cell Count: 327
